- study.target: T1, full-length human OX40 protein (human, UniProt P43489 29-277)
- T1 sequence (looked up): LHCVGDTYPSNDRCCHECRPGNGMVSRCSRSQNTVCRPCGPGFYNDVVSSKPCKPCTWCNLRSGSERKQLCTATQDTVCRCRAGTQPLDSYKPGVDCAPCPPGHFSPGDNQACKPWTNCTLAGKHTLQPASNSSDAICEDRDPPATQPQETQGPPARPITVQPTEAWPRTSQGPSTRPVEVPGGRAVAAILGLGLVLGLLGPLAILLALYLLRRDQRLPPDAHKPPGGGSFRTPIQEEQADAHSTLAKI
- experiment: cell-based or functional assay
Catalogue of binders with associated EC50, NF-kB reporter gene assay

- binder: "anti-human OX40 antibody BC3-6 (OX40 VHH-Fc) (Fc fusion, VHH fused through a linker to human IgG Fc, expressed in ExpiCHO, purified on Protein A; also called OX40 BC3-6; OX40 VHH-Fc antibody; not shown: linker encoded by the CMV-12GS-FC vector; human IgG FC fragment (hFC)) EVQLVESGGGLVQPGGSLRLSCAASGSILDSNLMGWFRQAPGKGRELVASINSYDDNTYYPDSVEGRFTISRDNAKRMVYLQMNSLRAEDTAVYYCAAQVFVGWPYTDQMHDYWGQGTQVTVSS"
  EC50, NF-kB reporter gene assay / nM: 0.162
- binder: "anti-human OX40 antibody BC3-7 (OX40 VHH-Fc) (Fc fusion, VHH fused through a linker to human IgG Fc, expressed in ExpiCHO, purified on Protein A; also called OX40 BC3-7; OX40 VHH-Fc antibody; not shown: linker encoded by the CMV-12GS-FC vector; human IgG FC fragment (hFC)) EVQLVESGGGLVQPGGSLRLSCAASGSIYDFDVMGWFRQAPGKGRELVAAINSFGDITYYPDSVEGRFTISRDNAKRMVYLQMNSLRAEDTAVYYCAADWHVLIQQVLGYWGQGTQVTVSS"
  EC50, NF-kB reporter gene assay / nM: 0.13
- binder: "anti-human OX40 antibody BC3-4 (OX40 VHH-Fc) (Fc fusion, VHH fused through a linker to human IgG Fc, expressed in ExpiCHO, purified on Protein A; also called OX40 BC3-4; OX40 VHH-Fc antibody; not shown: linker encoded by the CMV-12GS-FC vector; human IgG FC fragment (hFC)) EVQLVESGGGLVQPGGSLRLSCAASGFIFSAYFMGWFRQAPGKGRELVAAINSNDDITYYPDSVEGRFTISRDNAKRMVYLQMNSLRAEDTAVYYCAAWLGAENYGYWGQGTQVTVSS"
  EC50, NF-kB reporter gene assay / nM: 0.175
- binder: "anti-human OX40 antibody BC3-1 (OX40 VHH-Fc) (Fc fusion, VHH fused through a linker to human IgG Fc, expressed in ExpiCHO, purified on Protein A; also called OX40 BC3-1; OX40 VHH-Fc antibody; not shown: linker encoded by the CMV-12GS-FC vector; human IgG FC fragment (hFC)) EVQLVESGGGLVQPGGSLRLSCAASGSIFSVYVMGWFRQAPGKGRELVAAITPFDDNTYYPDSVEGRFTISRDNAKRMVYLQMNSLRAEDTAVYYCAADWEWPEYNYWGQGTQVTVSS"
  EC50, NF-kB reporter gene assay / nM: 0.209
